The reported numbers originate from patent US10351575B2.

target: EphB2 (Homo sapiens (Human)); assay: KinaseProfiler off-target kinase profiling; type: biochemical; conditions: 10 μM, ATP near Km
Sequence (P29323 19-1055): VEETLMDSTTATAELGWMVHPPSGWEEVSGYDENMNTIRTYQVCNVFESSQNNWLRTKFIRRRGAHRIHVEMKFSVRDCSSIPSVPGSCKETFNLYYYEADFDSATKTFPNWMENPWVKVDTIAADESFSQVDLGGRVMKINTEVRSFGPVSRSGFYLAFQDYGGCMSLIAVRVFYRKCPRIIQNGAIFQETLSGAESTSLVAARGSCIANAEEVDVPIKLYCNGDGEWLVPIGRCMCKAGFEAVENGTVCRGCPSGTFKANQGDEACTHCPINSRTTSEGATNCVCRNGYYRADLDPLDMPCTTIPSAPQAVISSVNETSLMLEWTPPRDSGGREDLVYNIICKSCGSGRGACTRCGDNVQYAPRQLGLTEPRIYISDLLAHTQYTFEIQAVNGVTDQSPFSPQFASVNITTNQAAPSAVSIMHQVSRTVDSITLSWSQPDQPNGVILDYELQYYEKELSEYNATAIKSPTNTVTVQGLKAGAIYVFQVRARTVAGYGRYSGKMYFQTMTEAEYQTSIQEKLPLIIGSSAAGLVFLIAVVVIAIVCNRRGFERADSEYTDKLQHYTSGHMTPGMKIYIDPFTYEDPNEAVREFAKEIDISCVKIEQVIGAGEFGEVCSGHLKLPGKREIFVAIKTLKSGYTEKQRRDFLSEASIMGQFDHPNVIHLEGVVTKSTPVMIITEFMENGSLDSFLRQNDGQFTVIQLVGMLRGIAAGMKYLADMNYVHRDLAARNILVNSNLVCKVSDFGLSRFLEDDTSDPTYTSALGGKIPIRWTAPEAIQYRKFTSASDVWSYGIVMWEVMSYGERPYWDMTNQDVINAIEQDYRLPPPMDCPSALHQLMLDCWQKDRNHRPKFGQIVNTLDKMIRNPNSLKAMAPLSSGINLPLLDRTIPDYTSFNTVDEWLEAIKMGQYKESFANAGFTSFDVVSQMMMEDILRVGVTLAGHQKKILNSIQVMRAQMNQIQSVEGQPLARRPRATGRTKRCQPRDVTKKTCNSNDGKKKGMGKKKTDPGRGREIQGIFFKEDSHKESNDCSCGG
VALUE KIND: Avg. POC (POC)
# unit: POC | format: bare number

Exercise: Name the reported Avg. POC value associated with the compound Cc1c(-c2cnn(C)c2)nn(-c2ccccc2)c1NC(=O)NC1CCOc2cc(F)ccc21 (stereo not shown)
Solution: 112

Exercise: Given Cc1c(-c2ccc(=O)n(C)c2)nn(-c2ccccc2)c1NC(=O)NC1CN(CC(F)(F)F)Cc2ccccc21 (stereo not shown) , state its recorded Avg. POC.
Solution: 109.5

Exercise: Requested read-out: Avg. POC. Entry: Cc1c(-c2cnn(C)c2)nn(-c2ccccc2)c1NC(=O)N[C@H]1CCCc2ccccc21
Solution: 125

Exercise: Query (compound): COCc1ccc2c(c1)C(NC(=O)Nc1c(C)c(-c3cnn(C)c3)nn1-c1ccccc1)COC2 (stereo not shown) ; field requested: Avg. POC
Solution: 96.5

====

molecular target: SGK3 (Homo sapiens (Human), UniProt Q96BR1); assay: KinaseProfiler off-target kinase profiling; type: biochemical; settings: 10 μM, ATP near Km
Sequence (Q96BR1 whole entry): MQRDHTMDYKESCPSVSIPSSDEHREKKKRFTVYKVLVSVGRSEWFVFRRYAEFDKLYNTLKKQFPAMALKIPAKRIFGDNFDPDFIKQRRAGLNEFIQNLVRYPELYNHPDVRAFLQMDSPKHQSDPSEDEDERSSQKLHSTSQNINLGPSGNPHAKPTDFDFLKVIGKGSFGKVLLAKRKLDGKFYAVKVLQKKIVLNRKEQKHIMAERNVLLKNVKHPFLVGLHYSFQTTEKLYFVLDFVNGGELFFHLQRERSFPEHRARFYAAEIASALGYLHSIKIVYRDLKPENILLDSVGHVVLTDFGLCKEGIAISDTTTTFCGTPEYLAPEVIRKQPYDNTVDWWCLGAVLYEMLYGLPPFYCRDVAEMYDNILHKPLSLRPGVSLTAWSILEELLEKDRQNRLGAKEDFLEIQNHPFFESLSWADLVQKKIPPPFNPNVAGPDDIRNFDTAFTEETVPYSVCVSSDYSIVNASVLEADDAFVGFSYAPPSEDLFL
VALUE KIND: Avg. POC (POC)
Give the value in POC but do not write POC after it.

Exercise: Could you share which Avg. POC value was measured for COCc1ccc2c(c1)C(NC(=O)Nc1c(C)c(-c3cnn(C)c3)nn1-c1ccccc1)COC2 (stereo not shown) ?
Solution: 134

Exercise: What does the data say about its Avg. POC? Entry: Cc1c(-c2ccc(=O)n(C)c2)nn(-c2ccccc2)c1NC(=O)NC1CN(CC(F)(F)F)Cc2ccccc21 (stereo not shown)
Solution: 104

Exercise: Given Cc1c(-c2cnn(C)c2)nn(-c2ccccc2)c1NC(=O)NC1CCOc2cc(F)ccc21 (stereo not shown) , state its recorded Avg. POC.
Solution: 143.5

Exercise: Could you tell me which Avg. POC is on file for Cc1c(-c2cnn(C)c2)nn(-c2ccccc2)c1NC(=O)N[C@H]1CCCc2ccccc21 ?
Solution: 137.5

====

Molecular target: TAO3 (Homo sapiens (Human), UniProt Q9H2K8)
Sequence (Q9H2K8 whole entry): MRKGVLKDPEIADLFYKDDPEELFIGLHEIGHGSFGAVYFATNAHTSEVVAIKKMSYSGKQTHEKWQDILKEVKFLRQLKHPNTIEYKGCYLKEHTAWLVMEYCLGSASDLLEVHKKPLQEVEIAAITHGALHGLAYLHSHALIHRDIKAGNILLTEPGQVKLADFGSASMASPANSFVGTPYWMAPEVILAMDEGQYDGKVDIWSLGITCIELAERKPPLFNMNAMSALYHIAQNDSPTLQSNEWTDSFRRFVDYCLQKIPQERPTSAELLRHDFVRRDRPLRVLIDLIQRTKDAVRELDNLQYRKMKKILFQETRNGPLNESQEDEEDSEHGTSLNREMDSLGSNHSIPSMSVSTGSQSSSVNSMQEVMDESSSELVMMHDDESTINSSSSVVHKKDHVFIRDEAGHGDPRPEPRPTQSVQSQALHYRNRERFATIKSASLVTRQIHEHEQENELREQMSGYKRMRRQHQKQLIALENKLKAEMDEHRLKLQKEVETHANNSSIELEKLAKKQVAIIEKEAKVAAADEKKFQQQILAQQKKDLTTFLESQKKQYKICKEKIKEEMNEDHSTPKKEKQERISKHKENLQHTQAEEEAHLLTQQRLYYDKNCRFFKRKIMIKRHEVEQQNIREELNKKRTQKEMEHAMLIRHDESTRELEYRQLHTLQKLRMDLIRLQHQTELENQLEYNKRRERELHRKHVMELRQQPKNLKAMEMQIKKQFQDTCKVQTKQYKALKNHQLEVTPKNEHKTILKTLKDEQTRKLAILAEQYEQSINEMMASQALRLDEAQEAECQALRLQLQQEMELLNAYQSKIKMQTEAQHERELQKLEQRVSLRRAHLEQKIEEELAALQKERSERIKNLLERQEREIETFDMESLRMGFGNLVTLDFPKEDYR
Test: KinaseProfiler off-target kinase profiling
Assay type: biochemical
Settings: 10 μM, ATP near Km
Description: Representative compounds (Examples 12, 32, 26 and 2) of the invention were tested for off-target kinase activity at a concentration of 10 μM by Millipore, Inc. in their KinaseProfiler™ service against all the kinases available in their full kinase panel. Compounds were run in duplicate at a concentration of ATP near the Km for each individual kinase according to Millipore's specifications. […]
VALUE KIND: Avg. POC (POC)
Please state the figure in POC; there is no need to write the unit.

Exercise: Give its Avg. POC value. Item: Cc1c(-c2cnn(C)c2)nn(-c2ccccc2)c1NC(=O)N[C@H]1CCCc2ccccc21
Solution: 111

Exercise: Consider the compound shown here: Cc1c(-c2ccc(=O)n(C)c2)nn(-c2ccccc2)c1NC(=O)NC1CN(CC(F)(F)F)Cc2ccccc21 (stereo not shown) What is its recorded Avg. POC?
Solution: 109

Exercise: What does the record list as Avg. POC for COCc1ccc2c(c1)C(NC(=O)Nc1c(C)c(-c3cnn(C)c3)nn1-c1ccccc1)COC2 (stereo not shown) ?
Solution: 105

Exercise: Tell me the measured Avg. POC of Cc1c(-c2cnn(C)c2)nn(-c2ccccc2)c1NC(=O)NC1CCOc2cc(F)ccc21 (stereo not shown) , please.
Solution: 99

====

target: CDK7/cyclinH/MAT1 (Homo sapiens (Human), UniProt P50613); test: KinaseProfiler off-target kinase profiling; format: biochemical; conditions: 10 μM, ATP near Km
What Avg. POC was measured for each of the following?
Note: unit POC is implicit; provide only the numeric part.

Exercise: Query (compound): COCc1ccc2c(c1)C(NC(=O)Nc1c(C)c(-c3cnn(C)c3)nn1-c1ccccc1)COC2 (stereo not shown) [Example 32] ; field requested: Avg. POC
Solution: 122.5

Exercise: What value of Avg. POC has been recorded for this entry: Cc1c(-c2ccc(=O)n(C)c2)nn(-c2ccccc2)c1NC(=O)NC1CN(CC(F)(F)F)Cc2ccccc21 (stereo not shown) [Example 26]
Solution: 113.5

Exercise: # get_value(readout='Avg. POC', item= Cc1c(-c2cnn(C)c2)nn(-c2ccccc2)c1NC(=O)N[C@H]1CCCc2ccccc21 [Example 2] )
Solution: 111

Exercise: # input compound: Cc1c(-c2cnn(C)c2)nn(-c2ccccc2)c1NC(=O)NC1CCOc2cc(F)ccc21 (stereo not shown) [Example 12] ; wanted: its Avg. POC
Solution: 101

====

Hi there, I'd appreciate the recorded Avg. POC for every entry that follows.
target: EGFR (Homo sapiens (Human)); assay: KinaseProfiler off-target kinase profiling; assay type: biochemical; settings: 10 μM, ATP near Km
Sequence (P00533 25-1210): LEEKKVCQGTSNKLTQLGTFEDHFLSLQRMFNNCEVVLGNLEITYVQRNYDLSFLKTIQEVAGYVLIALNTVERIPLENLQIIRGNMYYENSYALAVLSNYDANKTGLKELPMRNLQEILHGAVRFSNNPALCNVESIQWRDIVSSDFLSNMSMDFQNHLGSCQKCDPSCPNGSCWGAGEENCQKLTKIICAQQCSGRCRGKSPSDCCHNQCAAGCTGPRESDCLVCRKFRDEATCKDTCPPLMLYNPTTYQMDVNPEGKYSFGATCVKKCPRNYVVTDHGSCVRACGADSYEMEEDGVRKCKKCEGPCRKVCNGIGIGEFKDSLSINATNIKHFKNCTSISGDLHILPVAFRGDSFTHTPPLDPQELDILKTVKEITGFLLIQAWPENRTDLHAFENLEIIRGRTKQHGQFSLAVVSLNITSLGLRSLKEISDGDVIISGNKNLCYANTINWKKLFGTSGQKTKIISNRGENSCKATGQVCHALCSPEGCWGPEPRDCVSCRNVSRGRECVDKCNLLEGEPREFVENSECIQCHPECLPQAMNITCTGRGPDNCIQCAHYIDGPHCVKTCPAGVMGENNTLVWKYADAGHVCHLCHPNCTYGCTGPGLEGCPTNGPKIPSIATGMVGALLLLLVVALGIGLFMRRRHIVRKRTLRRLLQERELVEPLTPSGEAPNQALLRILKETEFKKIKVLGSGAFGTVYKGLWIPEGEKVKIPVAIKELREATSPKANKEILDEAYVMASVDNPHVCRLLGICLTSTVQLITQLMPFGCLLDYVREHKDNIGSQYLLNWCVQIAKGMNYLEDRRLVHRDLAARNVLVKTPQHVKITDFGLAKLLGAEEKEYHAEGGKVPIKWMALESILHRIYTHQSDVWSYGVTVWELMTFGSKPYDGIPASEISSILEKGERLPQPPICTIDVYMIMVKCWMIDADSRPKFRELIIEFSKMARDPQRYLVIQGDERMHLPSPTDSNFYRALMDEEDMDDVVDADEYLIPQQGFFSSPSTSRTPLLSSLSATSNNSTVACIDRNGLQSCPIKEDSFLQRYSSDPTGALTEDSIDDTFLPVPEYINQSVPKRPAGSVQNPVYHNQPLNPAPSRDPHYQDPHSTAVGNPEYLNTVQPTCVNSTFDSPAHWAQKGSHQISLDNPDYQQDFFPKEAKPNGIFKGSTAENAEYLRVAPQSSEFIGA
Numeric only. Scale: POC

Exercise: Which Avg. POC value belongs to Cc1c(-c2cnn(C)c2)nn(-c2ccccc2)c1NC(=O)N[C@H]1CCCc2ccccc21 [Example 2] ?
Solution: 114

Exercise: Could you tell me which Avg. POC is on file for Cc1c(-c2cnn(C)c2)nn(-c2ccccc2)c1NC(=O)NC1CCOc2cc(F)ccc21 (stereo not shown) [Example 12] ?
Solution: 109.5

Exercise: Suppose we examine the compound COCc1ccc2c(c1)C(NC(=O)Nc1c(C)c(-c3cnn(C)c3)nn1-c1ccccc1)COC2 (stereo not shown) [Example 32] ; what Avg. POC value has been reported?
Solution: 102

Exercise: Requested field: Avg. POC. Item: Cc1c(-c2ccc(=O)n(C)c2)nn(-c2ccccc2)c1NC(=O)NC1CN(CC(F)(F)F)Cc2ccccc21 (stereo not shown) [Example 26]
Solution: 108

====

target: UniProtKB Q8IW41; test: KinaseProfiler off-target kinase profiling; format: biochemical; settings: 10 μM, ATP near Km
Sequence (Q8IW41 whole entry): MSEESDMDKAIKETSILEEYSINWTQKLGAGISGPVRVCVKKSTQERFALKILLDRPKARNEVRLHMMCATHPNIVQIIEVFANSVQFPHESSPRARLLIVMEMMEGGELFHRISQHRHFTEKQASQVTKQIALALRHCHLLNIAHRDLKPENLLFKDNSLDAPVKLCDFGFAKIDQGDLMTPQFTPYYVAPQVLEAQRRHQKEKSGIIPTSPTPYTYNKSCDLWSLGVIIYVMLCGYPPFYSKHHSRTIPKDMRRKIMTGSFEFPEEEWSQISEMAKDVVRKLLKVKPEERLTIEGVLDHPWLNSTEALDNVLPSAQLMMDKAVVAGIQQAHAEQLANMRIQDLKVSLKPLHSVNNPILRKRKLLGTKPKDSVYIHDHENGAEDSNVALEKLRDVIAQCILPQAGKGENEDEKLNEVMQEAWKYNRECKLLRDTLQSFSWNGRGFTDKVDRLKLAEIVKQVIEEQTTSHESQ
VALUE KIND: Avg. POC (POC)
The response must be a number in POC with no trailing unit.

Exercise: Need Avg. POC of Cc1c(-c2cnn(C)c2)nn(-c2ccccc2)c1NC(=O)N[C@H]1CCCc2ccccc21 , thanks.
Solution: 113.5

Exercise: What Avg. POC value was documented for this molecule, COCc1ccc2c(c1)C(NC(=O)Nc1c(C)c(-c3cnn(C)c3)nn1-c1ccccc1)COC2 (stereo not shown) ?
Solution: 108

Exercise: For the molecule shown here, Cc1c(-c2cnn(C)c2)nn(-c2ccccc2)c1NC(=O)NC1CCOc2cc(F)ccc21 (stereo not shown) , give the reported Avg. POC.
Solution: 96

Exercise: Tell me the measured Avg. POC of Cc1c(-c2ccc(=O)n(C)c2)nn(-c2ccccc2)c1NC(=O)NC1CN(CC(F)(F)F)Cc2ccccc21 (stereo not shown) , please.
Solution: 101.5

====

molecular target: UniProt Q8IU85; test: KinaseProfiler off-target kinase profiling; format: biochemical; conditions: 10 μM, ATP near Km
Sequence (Q8IU85 whole entry): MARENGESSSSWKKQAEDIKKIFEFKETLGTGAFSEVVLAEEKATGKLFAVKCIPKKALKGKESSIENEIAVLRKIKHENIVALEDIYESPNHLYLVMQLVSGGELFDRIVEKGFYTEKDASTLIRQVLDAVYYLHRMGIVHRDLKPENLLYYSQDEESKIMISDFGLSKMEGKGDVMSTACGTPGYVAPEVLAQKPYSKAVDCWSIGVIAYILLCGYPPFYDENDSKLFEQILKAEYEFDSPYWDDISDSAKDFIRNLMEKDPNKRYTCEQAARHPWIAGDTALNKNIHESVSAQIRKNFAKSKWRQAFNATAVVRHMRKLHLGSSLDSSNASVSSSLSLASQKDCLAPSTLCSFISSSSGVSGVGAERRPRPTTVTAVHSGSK
VALUE KIND: Avg. POC

Exercise: For UniProt Q8IU85, provide Avg. POC of Cc1c(-c2cnn(C)c2)nn(-c2ccccc2)c1NC(=O)N[C@H]1CCCc2ccccc21 please.
Solution: 127 POC

Exercise: State its Avg. POC on UniProt Q8IU85: Cc1c(-c2ccc(=O)n(C)c2)nn(-c2ccccc2)c1NC(=O)NC1CN(CC(F)(F)F)Cc2ccccc21 (stereo not shown)
Solution: 97 POC

Exercise: Please tell me: Avg. POC of Cc1c(-c2cnn(C)c2)nn(-c2ccccc2)c1NC(=O)NC1CCOc2cc(F)ccc21 (stereo not shown) , system UniProt Q8IU85?
Solution: 137 POC

Exercise: API: value(readout= Avg. POC, system= UniProt Q8IU85, query= COCc1ccc2c(c1)C(NC(=O)Nc1c(C)c(-c3cnn(C)c3)nn1-c1ccccc1)COC2 (stereo not shown) )
Solution: 114 POC

====

biological target: CSK (Homo sapiens (Human), UniProt P41240); experiment: KinaseProfiler off-target kinase profiling; type: biochemical; details: 10 μM, ATP near Km
Sequence (P41240 whole entry): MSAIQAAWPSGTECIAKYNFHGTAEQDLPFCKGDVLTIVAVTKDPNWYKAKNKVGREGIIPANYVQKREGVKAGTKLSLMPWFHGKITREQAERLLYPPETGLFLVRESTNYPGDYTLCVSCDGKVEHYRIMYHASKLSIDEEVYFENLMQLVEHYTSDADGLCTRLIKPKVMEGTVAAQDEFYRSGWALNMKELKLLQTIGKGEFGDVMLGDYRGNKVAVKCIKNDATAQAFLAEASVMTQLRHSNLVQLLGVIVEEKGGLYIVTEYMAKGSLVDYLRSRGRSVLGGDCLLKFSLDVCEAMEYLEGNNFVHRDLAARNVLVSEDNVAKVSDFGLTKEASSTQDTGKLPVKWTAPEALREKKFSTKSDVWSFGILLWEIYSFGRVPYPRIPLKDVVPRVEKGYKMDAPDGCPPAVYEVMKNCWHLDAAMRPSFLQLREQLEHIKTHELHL
So I've got a bunch of compounds here, and I need their Avg. POC values.
Your answer should be a number followed by the unit of measure.

Exercise: Using the record for Cc1c(-c2cnn(C)c2)nn(-c2ccccc2)c1NC(=O)N[C@H]1CCCc2ccccc21 , report its Avg. POC.
Solution: 124 POC

Exercise: So what does the record say about Avg. POC for Cc1c(-c2ccc(=O)n(C)c2)nn(-c2ccccc2)c1NC(=O)NC1CN(CC(F)(F)F)Cc2ccccc21 (stereo not shown) ?
Solution: 118.5 POC

Exercise: I am curious: what Avg. POC value has been reported for COCc1ccc2c(c1)C(NC(=O)Nc1c(C)c(-c3cnn(C)c3)nn1-c1ccccc1)COC2 (stereo not shown) ?
Solution: 123 POC

Exercise: Requested read-out: Avg. POC. Entry: Cc1c(-c2cnn(C)c2)nn(-c2ccccc2)c1NC(=O)NC1CCOc2cc(F)ccc21 (stereo not shown)
Solution: 131.5 POC
